Source listed as paper PMC12696090.

# target_desc: NHis-RosC (Micromonospora rosaria, UniProt I7HHD0, P107S/L176Q)
# Construct: full-length, N-terminal His-tag kept (pET28b), expressed in E. coli BL21(DE3)
# run_description: spectral substrate-binding assay (difference spectra)
# condition_description: 50 mM Tris-HCl pH 7.5, 20% glycerol, room temperature, 1 μM enzyme; Type II spectral change
measured_endpoint: pKd
The read-out pKd is expressed as -log10 of concentration in moles per litre.

**Query** Give the value of pKd reported for the following: CC[C@H]1C[C@@H](C)C(=O)/C=C/[C@]2(C)O[C@H]2[C@H](C)[C@@H](CC)OC(=O)C[C@@H](O)[C@H](C)[C@H]1O[C@@H]1O[C@H](C)C[C@H](N(C)C)[C@H]1O
**Result** 6.00

* * *

# target_desc: NHis-RosC (Micromonospora rosaria)
# Construct: full-length, N-terminal His-tag kept (pET28b), expressed in E. coli BL21(DE3)
# run_description: spectral substrate-binding assay (difference spectra)
# condition_description: 50 mM Tris-HCl pH 7.5, 20% glycerol, room temperature, 1 μM enzyme; Type II spectral change
measured_endpoint: Kd
Remember to put the unit after the number in your answer.

**Query** Give the value of Kd reported for the following: CC[C@H]1C[C@@H](C)C(=O)/C=C/[C@]2(C)O[C@H]2[C@H](C)[C@@H](CC)OC(=O)C[C@@H](O)[C@H](C)[C@H]1O[C@@H]1O[C@H](C)C[C@H](N(C)C)[C@H]1O
**Result** 1.4 µM
